Assay: Durometer hardness of cured composition (Shore scales)
Type: physicochemical
Details: in Acrylamide-polymer B; 0.25 inch thick section of cured material
Measurement label: DUROMETER INITIAL (Shore OO)
Give a bare numeral; the unit Shore OO is implied.

q: Return reported DUROMETER INITIAL; argument: CCOC(OCC)C(=O)c1ccccc1 [P-2, diethoxyacetophenone]
a: 42

q: Can you handle CC(C)(O)C(=O)c1ccccc1 [P-1, 2 hydroxy-2-methylphenylpropan-1-one] next?
a: 45

q: Can you handle O=C(c1ccccc1)c1ccccc1 [P-4, benzophenone] next?
a: 44

q: Can you handle O=C(c1ccccc1)C1(O)CCCCC1 [P-3, (1-hydroxycyclohexyl)phenylmethanone] next?
a: 41
